Below, each entry is listed with its recorded logP.
Note: the reply should be a number with no unit written.

Before answering, review these 4 worked examples.
Compound	logP
Clc1ccc(-c2c(Cl)c(Cl)cc(Cl)c2Cl)cc1Cl	7.2
CCN1CC(C(O)C(CC2CCCCC2)NC(=O)C(Cc2c[nH]cn2)NC(=O)C(Cc2ccc(OC)cc2)NC(=O)C(C)C)OC1=O (stereo unspecified)	2.85
CC(C)CNC(=O)C1(O)C(C)CC2C3CCC4=CC(=O)C=CC4(C)C3(F)C(O)CC21C (stereo unspecified)	3.01
Nc1nc(=O)n(C2CCC(CO)O2)cc1I (stereo unspecified)	-0.31

Recorded logP of O=C(O)C[N+]1([O-])CCN(C(=O)Cn2c(=O)sc3ccc(Cl)cc32)CC1 , please.
0.21

Recorded logP of CC1(c2ccccc2)OC(=O)NC1=O (stereo unspecified) , please.
1.85

* * *

Below, each entry is listed with its recorded logP.

Before answering, review these 6 worked examples.
Compound	logP
Cc1ccc(Cl)c(Cl)c1	3.95
CS(=O)(=O)c1ccc2ccccc2c1	1.74
COC(=O)NCCn1c([N+](=O)[O-])cnc1C	0.02
O=[N+]([O-])c1ncn(CC(F)(F)CO)n1	-0.21
COC1CC(OC2CCC3(C=O)C4CCC5(C)C(C6=CC(=O)OC6)CCC5(O)C4CCC3(O)C2)OCC1O (configuration not stated)	0.64
NC(CCc1ccccc1)C(=O)O (configuration not stated)	-1.2

Recorded logP of Nc1nc(N)nc(C(Cl)(Cl)Cl)n1 , please.
1.24

* * *

Friendly reminder: logP below 2 is satisfied, at or above is not satisfied.

# count of solved cases: 4
Compound	Assigned Label
CC(C)(C)N(NC(=O)c1cccc(F)c1)C(=O)c1ccccc1Cl	not satisfied
CC(C)C(=O)NS(=O)(=O)c1ccc(C(F)(F)F)cc1N	not satisfied
NS(=O)(=O)c1cc(S(=O)(=O)c2ccc(CN3CCOCC3)cc2)cs1	satisfied
COc1cccc(C(=O)NP(=O)(N2CC2)N2CC2)c1	satisfied

Does the reported logP of the following compound sit strictly below 2? CCCCOC(=O)c1cnc2n(c1=O)C(C)CCC2 (stereo not given)
satisfied

Does the reported logP of the following compound sit strictly below 2? O=[N+]([O-])c1ncn[nH]1
satisfied

Does the reported logP of the following compound sit strictly below 2? O=[N+]([O-])c1nccn1CCN1CCCCC1
satisfied

Does the reported logP of the following compound sit strictly below 2? N#CC(C#N)=NNc1ccccc1Cl
not satisfied

Does the reported logP of the following compound sit strictly below 2? Cc1n[nH]c(C(=O)NCc2ccccc2)c1[N+](=O)[O-]
satisfied

Does the reported logP of the following compound sit strictly below 2? COc1cc(Cc2cnc(N)nc2N)cc(Br)c1OC
not satisfied

Does the reported logP of the following compound sit strictly below 2? COc1ccccc1OCc1ccccc1CCCN1CCC(O)CC1
not satisfied

Does the reported logP of the following compound sit strictly below 2? CCC(C)C(NC(=O)C(CC(=O)O)NC(C)=O)C(=O)NC(Cc1ccccc1)C(N)=O (stereo not given)
satisfied

* * *

Readout Type: logP
Note: the reply should be a number with no unit written.

Before answering, review these 3 worked examples.
Molecule	logP
CC(C)Oc1cccc(NC(=O)c2ccccc2C(F)(F)F)c1	3.7
CCOC(=O)Cn1ccnc1C=Cc1ccc([N+](=O)[O-])o1	1.27
C#CCOc1c(Cl)cc(NC=NO)cc1Cl	2.8

Recorded logP of CCC1COC(Cn2cncn2)(c2ccc(NC(=O)NC)cc2)O1 (stereo not drawn) , please.
0.62

Recorded logP of C#CCC(O)(c1cccnc1)c1ccc2ccccc2c1 (stereo not drawn) , please.
2.14

Recorded logP of N#CC(C#N)=NNc1ccccc1C(F)(F)F , please.
4.2

Recorded logP of OCC1CC(F)C(n2cnc3c(F)ncnc32)O1 (stereo not drawn) , please.
0.06

Recorded logP of CN(C)C=Nc1ccn(C2CC(O)C(CO)O2)c(=O)n1 (stereo not drawn) , please.
-1.54

Recorded logP of COCCCNc1nc(NC(C)C)nc(SC)n1 , please.
2.82

Recorded logP of COCc1ccc(O)c2ncccc12 , please.
1.78
